- measured.on: P450 1B1 (Homo sapiens, UniProt Q16678, L432V)
- Sequence (Q16678 1-543 L432V): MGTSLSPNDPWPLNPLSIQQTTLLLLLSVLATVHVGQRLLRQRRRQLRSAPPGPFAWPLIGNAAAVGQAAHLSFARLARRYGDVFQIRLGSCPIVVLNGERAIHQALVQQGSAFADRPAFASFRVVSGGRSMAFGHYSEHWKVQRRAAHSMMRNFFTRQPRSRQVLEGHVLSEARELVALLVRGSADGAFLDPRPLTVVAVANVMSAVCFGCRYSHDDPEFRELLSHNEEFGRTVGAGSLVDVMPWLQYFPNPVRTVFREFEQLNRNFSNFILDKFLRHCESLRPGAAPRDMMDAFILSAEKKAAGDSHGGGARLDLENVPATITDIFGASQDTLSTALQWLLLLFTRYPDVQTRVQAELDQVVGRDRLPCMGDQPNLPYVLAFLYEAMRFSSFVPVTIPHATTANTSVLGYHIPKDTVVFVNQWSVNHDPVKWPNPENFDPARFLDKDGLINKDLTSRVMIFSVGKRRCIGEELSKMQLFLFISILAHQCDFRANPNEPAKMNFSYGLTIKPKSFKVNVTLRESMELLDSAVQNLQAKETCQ
- test.method.notes: Spectral binding titration with purified P450 1B1
endpoint: log10 of Kd (log10 of the value in µM)
Hello, just confirming the data are log10 of Kd with units of µM.

Answer with the recorded log10 of Kd for the compound listed here: OC1C=C2c3ccccc3-c3cccc(c32)C1O (stereo not drawn) [FA-2,3-diol, 2,3-dihydroxy-2,3-dihydrofluoranthene]
0.87

Output measured log10 of Kd for this item: Cc1cc2ccccc2c2ccc3ccccc3c12 [5-methylchrysene]
0.84

Name the recorded log10 of Kd of the item Cc1c2ccccc2c(C)c2c1ccc1ccccc12 [7,12-DMBA, 7,12-dimethylbenz[a]anthracene] in your answer.
0.94

For the compound c1ccc2c(c1)-c1cccc3cccc-2c13 [fluoranthene] , report log10 of Kd.
0.20

Fill in log10 of Kd for record Cc1c2c(c(C)c3ccccc13)C(O)C(O)c1ccccc1-2 (stereo not drawn) [7,12-DMBA-5,6-diol]
1.58

Answer with the recorded log10 of Kd of OC1c2cccc3ccc4c5ccccc5cc(c4c23)C1O (stereo not drawn) [B[a]P-4,5-diol, 4,5-dihydroxy-4,5-dihydrobenzo[a]pyrene] only.
1.36

These data points were gathered from paper PMC3713097.
